# experiment_description: Acute toxicity in male Swiss albino mouse assessed as mortality rate at 450 to 50 mg/kg BW, po administered as single dose via gavage measured after 48 hrs by up-and-down method relative to control
# Type: organism-based
# experimental_conditions: in vivo, at 50 to 450 mg/kg, dose 450-50 mg/kg

- smiles_notation: "COc1cc(/C=C/C(=O)Nc2ccc3sc(NCN4C(=O)CSC4=O)nc3c2)ccc1O"
  mortality at 48 h / %: 0

###

# experiment_description: Acute toxicity in male Swiss albino mouse assessed as mortality rate at 1200 mg/kg BW, po administered as single dose via gavage measured after 48 hrs by up-and-down method relative to control
# Format: organism-based
# experimental_conditions: in vivo

- smiles_notation: "COc1cc(/C=C/C(=O)Nc2ccc3sc(NCN4C(=O)CSC4=O)nc3c2)ccc1O"
  unit_label: "%"
  mortality at 48 h: 80

###

# system_name: Cholinesterase (Equus caballus, UniProt P81908)
# Sequence (P81908 whole entry): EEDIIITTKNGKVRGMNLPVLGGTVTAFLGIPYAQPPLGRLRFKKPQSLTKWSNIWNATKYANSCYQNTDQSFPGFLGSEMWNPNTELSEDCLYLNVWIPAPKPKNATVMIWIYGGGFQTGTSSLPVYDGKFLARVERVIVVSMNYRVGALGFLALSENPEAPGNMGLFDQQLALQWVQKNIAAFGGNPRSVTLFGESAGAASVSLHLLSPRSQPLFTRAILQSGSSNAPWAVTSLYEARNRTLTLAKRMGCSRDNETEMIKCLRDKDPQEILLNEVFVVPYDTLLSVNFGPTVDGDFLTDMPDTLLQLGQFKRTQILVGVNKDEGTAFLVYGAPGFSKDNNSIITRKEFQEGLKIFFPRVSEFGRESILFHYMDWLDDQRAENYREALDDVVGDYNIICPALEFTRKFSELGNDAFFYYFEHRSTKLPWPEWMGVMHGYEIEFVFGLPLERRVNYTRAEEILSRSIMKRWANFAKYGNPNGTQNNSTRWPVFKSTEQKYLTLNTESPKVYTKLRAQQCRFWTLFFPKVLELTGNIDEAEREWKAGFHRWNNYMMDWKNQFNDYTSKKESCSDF
# experiment_description: Inhibition of equine serum BuChE using butyrylthiocholine iodide as substrate pre-incubated for 10 mins followed by substrate addition and measured after 15 mins by DTNB reagent based Ellman's method
pIC50: −log10 of the molar value.
Label 1 when pIC50 is at or above 5; anything below gets -1.

- smiles_notation: "C/C=C1\\SC(=O)N(CNc2nc(-c3cc(Cl)cs3)c(Nc3ccc(S(N)(=O)=O)cc3)s2)C1=O"
  qualitative_label: 1
- smiles_notation: "O=C1S/C(=C\\c2ccccc2)C(=O)N1CNc1nc(-c2cc(Cl)cs2)c(Nc2ccccc2)s1"
  qualitative_label: 1
- smiles_notation: "O=C1S/C(=C\\c2c[nH]c3ccccc23)C(=O)N1c1csc(Nc2ccccc2)n1"
  qualitative_label: -1
